# assay-remarks: amyloid nucleation score (Sup35N fusion, yeast selection) (log enrichment); library NNK2; higher = more nucleation; inactive = no reads after selection;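 note: zero at mode of non-aggregating sequences after 7 days selection at 30°C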
observed-property: amyloid nucleation score

Record excerpt, results attached:
{"columns": ["residues", "amyloid nucleation score"],
 "data": [
  ["SCRVLIGV", 0.878],
  ["RQFPGFSSYPTLEINFYICV", 6.76],
  ["VVRQTVSDCVQASTRSQLLK", 0.522],
  ["VYFSQDQFSYYFTRVESVEV", -0.191]
]}

Shifting focus to the sequence that follows.
Fill blank: measured amyloid nucleation score of the sequence SLYVKFPFMSDWLSMNHRMN is ____. -0.64

---

# assay-remarks: amyloid nucleation score (Sup35N fusion, yeast selection) (log enrichment); library NNK2; higher = more nucleation; inactive = no reads after selection
amyloid nucleation score: recorded values
Hey, just send me the number, nothing else.

A selection of reference data follows.
{"columns": ["substance", "amyloid nucleation score"],
 "data": [
  ["LVLLKGYKRSNNGKQCYAGL", 0.365],
  ["HRSMPIRYWVVTIWYGRSDS", 0.569],
  ["VPPSLLYLQTRDSPPEERMM", 0.374],
  ["NTVKKLHLLQHHRVYVCATT", -0.965],
  ["SGRPHDCPHWRFFRSIKGLI", -0.676]
]}

Given the entry CYGLYPEDLLCMYGKLDLPR , report its measured amyloid nucleation score. 0.229

Same lookup for GVDLGIRRAFT , please. 0.578

Another substance: LRWDGEDWRWDALWVTSSVC 0.512

Now give it for MAGVTPLELLCGPNQFALMR too. 1.95

Now the substance TLGKVGHYRRNNNMPVARFD -0.11

What would you report for YQSPCVTVVSGKRALPRGGR ? -0.001

# repeat for RIVRQSVYQELFYFGQRGSL 4.19

Query MLYYNESVINAVVYVKGRCW next -0.012

YRRLRTNLLWRQSRSY ? 0.817

---

# assay-remarks: amyloid nucleation score (Sup35N fusion, yeast selection) (log enrichment); library NNK1; higher = more nucleation; inactive = no reads after selection
observed-property: amyloid nucleation score
Reply briefly: the number, and no unit.

{"columns": ["substance", "amyloid nucleation score"],
 "data": [
  ["ISRADVWVWFLLSMSRREYF", 0.268],
  ["VPCLVRA", 0.506],
  ["YFFDIGVDSCMRFDIRVVET", 1.77],
  ["CKKELFKT", 0.77],
  ["KNLGTRGHSMY", -0.164],
  ["ILPKWAK", 0.7],
  ["TSFCIETSGSILIELYGCWA", -0.356],
  ["YNHIEFGWCLLVGFVMRKSR", 3.53]
]}

Quick one: amyloid nucleation score of YWRVVGITIWVVQDLIFGEG ? -0.783

Lookup YLRFTV 2.57

Input YPSIGLRVLLNYCDPTDTGA 0.255

# repeat for DLCFCTR -1.37

# iterate: VFYDNSARSVCNPNYGWTFS 0.181

// query: KSDNVVTRLRLLSAEVQW -0.295

Record: SSSVCASFAVWSCCASF 4.52

Can you handle PVSDLVIFLQLRFRNTCMLP next? 0.952

Same read-out for GRVDWMCEYLKLMRSVGWSR ? 0.545

Further, for YGISVMIYDRPAISACQIKH ? 2.71

---

# assay-remarks: amyloid nucleation score (Sup35N fusion, yeast selection) (log enrichment); library NNK3; higher = more nucleation; inactive = no reads after selection
observed-property: amyloid nucleation score

Example cases with answers are listed next.
{"columns": ["substance", "observed-measurement"],
 "data": [
  ["FCRIAVMFKSNQELYRMDNG", "inactive"],
  ["SMNKFKF", "inactive"],
  ["VKISMNYKTQLTWLLFAWIL", "inactive"],
  ["KFYLILVA", "inactive"],
  ["IVLTFYIYRNSYCSAV", 0.89],
  ["FWKACTCI", "inactive"]
]}

Shift focus to the following entry.
I would be grateful if you could share the reported amyloid nucleation score for KRYCSLMML . inactive

---

# assay-remarks: amyloid nucleation score (Sup35N fusion, yeast selection) (log enrichment); library NNK2; higher = more nucleation; inactive = no reads after selection
observed-property: amyloid nucleation score

Some solved entries appear below for comparison.
{"columns": ["substance", "amyloid nucleation score"],
 "data": [
  ["WRVGVK", 0.312],
  ["CMFKQYYYCARAYSVSWTVM", -0.013],
  ["NGLGLTIWL", 0.448],
  ["VSGRDHTNNTGLYAWLHFCY", -0.493]
]}

I have this substance here, IRMDGYEIRFSHSLYYLSH , and I need its recorded amyloid nucleation score. 2.45

Also need VSHSSIWSGSLKKSVSCDHV , thanks. inactive

---

# assay-remarks: amyloid nucleation score (Sup35N fusion, yeast selection) (log enrichment); library NNK2; higher = more nucleation; inactive = no reads after selection
observed-property: amyloid nucleation score

Known results for substances:
{"columns": ["substance", "amyloid nucleation score"],
 "data": [
  ["DDVSHPHLKCIVWD", "inactive"],
  ["KDLRWVLRWC", 0.912],
  ["VGKMVNVDGRSPSCWSVWH", 0.47],
  ["MFSRIWPSSDL", -0.324]
]}

Any idea what its amyloid nucleation score is? The substance is YFIVVFMLSVNKT 0.06

Also TGHLEEMYKYDALYSSAKRA , if possible. 1

// next record AWKMVMRLDARPLARFWGDG 5.34

Next record, please: PQWWRNLLSKSGTNAADCYL 0.577

Likewise for FRLYPVPESKDLGRPGMPRQ ? 0.308

Let us now turn to IGCNVESVYAGLALQMT 2.7

Check DVMSSPGVSFITTVAFDVC too. 0.382

Would you kindly repeat that for RYMGVMVYKAPPRRTWCGKV ? -0.237

Similarly, DTILWRSSHAEGTEAWHMGF ? 1.28

// repeat for VSCYACREFMRLIVISGCLC and report 3.69

Moving on to FSSLIKTICLMTAMAEGMSP -0.258

Now the same for ILFVLWKLDRRPCSLLEYTQ 0.463

Can you handle YYCTKASTLRSGGFRFMPMT next? 4.9

---

# assay-remarks: amyloid nucleation score (Sup35N fusion, yeast selection) (log enrichment); library NNK3; higher = more nucleation; inactive = no reads after selection
observed-property: amyloid nucleation score

Illustrative cases are given below, each with its answer.
{"columns": ["residues", "observed-property", "observed-measurement"],
 "data": [
  ["NTFCIFALTYIQWVPYLAMF", "amyloid nucleation score", "inactive"],
  ["FFVFSRLVYPWCGMFFLSLK", "amyloid nucleation score", "inactive"],
  ["IGRMKRSIGRCDPVWWNWVQ", "amyloid nucleation score", "inactive"],
  ["GYKFWCSVFLVWLILHVRQS", "amyloid nucleation score", "inactive"],
  ["GVKYVDNIGLRGWFFCRHAV", "amyloid nucleation score", "inactive"]
]}

Which value of amyloid nucleation score has been reported for DIVANYQMM in the records? inactive

And WYHVSHVYYGVGIGLRD ? inactive

Another sequence: DTLYIASYEAVSGLRSPYER inactive

---

# assay-remarks: amyloid nucleation score (Sup35N fusion, yeast selection) (log enrichment); library NNK1; higher = more nucleation; inactive = no reads after selection
Label scheme for amyloid nucleation score: lower than 0.08 is no (0), 0.08 and above is yes (1).

Solved cases (2 shown):
{"columns": ["residues", "assigned-label"],
 "data": [
  ["SGNSSFIVILNKRTFRLCRY", "yes (1)"],
  ["CVLCDGYFKSERLLNGWVM", "no (0)"]
]}

Please indicate if the recorded amyloid nucleation score for SSFSLGHVDGYKSTSVDAVL meets or exceeds 0.08. no (0)

Likewise for WNYTGSFFMQYSMGISRRDG ? yes (1)

How about SVWVENLEFIWRYLPSSVYP ? no (0)

For LWLRGLVSFRQSHGRTGKSS then? no (0)

What would you report for KDCCMLDIYVEAWSGSFGRK ? yes (1)

---

# assay-remarks: amyloid nucleation score (Sup35N fusion, yeast selection) (log enrichment); library NNK1; higher = more nucleation; inactive = no reads after selection
observed-property: amyloid nucleation score
Format: numeric value only, no unit, no commentary.

{"columns": ["residues", "amyloid nucleation score"],
 "data": [
  ["FDYLCSGGMSTILSCITFPL", -0.37]
]}

Recorded amyloid nucleation score for RSIPSMEVSVMK , please? -0.805

Now consider GTSMRFGGGVIF and answer again. -0.721

Please give the result for TVDGTECCWVDTRNNSRMVK too. -0.941

Proceed to TKVDRLALSM 0.658

Next sequence: SMFYLSKFAVEFWRRMS -0.097

Okay, and TNCDVVNSCTFGGNGDY ? 0.151

Input LVTNAYTYSSTGIYDYVRPG 0.093

Same again, this time with PMPSLECNGVHFIKGIRLTL 0.754

Reference source: the supplement of paper PMC12042874
